System: E. coli
protocolDetails: Gram negative MIC protocol (OD600, LB, 24 h)
cond: Escherichia coli, read-out: MIC WT E. coli LB Media, wild-type E. coli, LB media, 24 h, OD600
property: MIC

These recorded examples may help you get a feel for the data.
1. CC(CC1CCCCC1)NCc1ccccc1OC1CC2CCC1(C)C2(C)C (stereo not shown); > 150 µM
2. CC(CC1CCCCC1)NCc1ccccc1OCC(=O)N1CC(C)OC(C)C1 (stereo not shown); > 150 µM
3. CC(C)(C)OC(=O)N1CCC(CCNCc2ccccc2)CC1; > 300 µM

Problem: Which MIC is listed for Cc1nonc1COc1ccccc1CNC(C)CC1CCCCC1 (stereo not shown) ?
Result: 150 µM

Problem: I'd like to know its MIC. The molecule in question is C=CCOc1ccccc1CNC(C)CC1CCCCC1 (stereo not shown)
Result: 91 µM

Just for reference, patent US11261201B2 is where these values come from.
